So I've got a bunch of compounds here, and I need their remaining activity at 100 µM values.
target: UniProt P11880; experiment: biochemical; conditions: 0.25 h, Table S1, PKIS screening; read-out: RA [%] at 100 µM MurF
Sequence (P11880 whole entry): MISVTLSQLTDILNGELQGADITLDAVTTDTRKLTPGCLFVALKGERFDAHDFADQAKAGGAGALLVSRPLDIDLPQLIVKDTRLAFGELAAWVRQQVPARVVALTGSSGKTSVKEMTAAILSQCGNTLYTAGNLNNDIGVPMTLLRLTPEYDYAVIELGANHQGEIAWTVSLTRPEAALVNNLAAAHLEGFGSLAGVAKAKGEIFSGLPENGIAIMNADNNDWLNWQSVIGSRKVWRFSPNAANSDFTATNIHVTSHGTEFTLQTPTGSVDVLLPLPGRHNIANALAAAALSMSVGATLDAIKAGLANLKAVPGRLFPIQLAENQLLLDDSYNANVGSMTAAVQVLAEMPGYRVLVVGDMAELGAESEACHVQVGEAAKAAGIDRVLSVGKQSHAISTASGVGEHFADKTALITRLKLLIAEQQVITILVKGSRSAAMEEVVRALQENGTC
Your answer is read as %, so omit the unit and give the number.

Fill in: remaining activity at 100 µM of Nc1nonc1-c1nc2cnccc2n1C1CCCCC1 is ___
93

Fill in: remaining activity at 100 µM of COc1ccccc1Nc1ncc(-c2ccccc2)o1 [GW577921A] is ___
76

Fill in: remaining activity at 100 µM of Nc1ncc(-c2cccc(S(N)(=O)=O)c2)c2scc(-c3ccc(F)c(Cl)c3)c12 [GW856804X] is ___
71

Fill in: remaining activity at 100 µM of CN1CCC(n2cnc(-c3ccc(F)cc3)c2-c2ccnc(N)n2)CC1 is ___
100

Fill in: remaining activity at 100 µM of c1ccc(Cc2nc3ccc(Nc4ncnc5ccccc45)cc3[nH]2)cc1 [GR269666A] is ___
96

Fill in: remaining activity at 100 µM of NC(=O)c1sc(-n2cnc3ccc(C(F)(F)F)cc32)cc1OCc1ccccc1Br [GW853606X] is ___
75

Fill in: remaining activity at 100 µM of COc1ccc(C2=C(N3CCc4ccccc43)C(=O)NC2=O)cc1 is ___
97

Fill in: remaining activity at 100 µM of OCCCNc1nccc(-c2c(-c3ccc(F)cc3)nn3cc(C(F)(F)F)ccc23)n1 [GW569293E] is ___
72

Fill in: remaining activity at 100 µM of CCOc1nccc2c1nc(-c1nonc1N)n2CC is ___
100

Fill in: remaining activity at 100 µM of CC1=C(C(=O)Nc2ccc3[nH]ncc3c2)C(c2ccc(F)cc2)NC(=O)N1 (stereo not shown) [GSK180736A] is ___
85

Fill in: remaining activity at 100 µM of Fc1ccc(-c2ncn(CCCN3CCOCC3)c2-c2ccncc2)cc1 is ___
100

Fill in: remaining activity at 100 µM of CN(C)c1cc2c(Nc3ccc4c(cnn4Cc4ccccc4)c3)ncnc2cn1 [GW282974X] is ___
55

Fill in: remaining activity at 100 µM of Nc1ncnc2occ(-c3ccc(NC(=O)Nc4cc(C(F)(F)F)ccc4F)cc3)c12 [GW770249A] is ___
63

Fill in: remaining activity at 100 µM of Fc1ccc(-c2ncn(C3CCNCC3)c2-c2ccnc(Oc3ccc(Oc4ccccc4)cc3)n2)cc1 is ___
41

Fill in: remaining activity at 100 µM of COc1cccc(-n2ncc3c(N/N=C/c4ccc(F)cc4)ncnc32)c1 [GW817396X] is ___
41

Fill in: remaining activity at 100 µM of COc1ccc(-c2coc3ncnc(N)c23)cc1 [GW642125X] is ___
85

Fill in: remaining activity at 100 µM of CS(=O)(=O)CCNCc1ccc(-c2ccc3ncnc(Nc4ccc(OCc5ccccc5)c(Br)c4)c3c2)o1 [GW580496A] is ___
90

Fill in: remaining activity at 100 µM of CS(=O)(=O)CCNCc1coc(-c2ccc3ncnc(Nc4ccc(OCc5ccccc5)cc4)c3c2)c1 [GW566221B] is ___
82

Fill in: remaining activity at 100 µM of Fc1ccc(-c2ncn(C3CCNCC3)c2-c2ccnc(Oc3ccccc3)n2)cc1 is ___
75
